Tested on: TO-3-N3 (biotin conjugate)
Assay: pull-down binding Z-score (relative to library population); higher = stronger binding
Conditions: RNA library: Library-2
Listed below: pull-down binding Z-score values for each entry.
OBSERVATION TYPE: pull-down binding Z-score

[[record]]
chain = "GUGAGAGAGAGCCGGAACCCAGGGAAUGCUGAGUUCGAAGAUCUCAC [IAV_invivo_NP_5_Motif_14+IAV_invivo_NP_5_Motif_14]"
tgt = "TO-3-N3 (biotin conjugate)"
observation_type = "pull-down binding Z-score"
data_value = 0.351

[[record]]
chain = "UUUAUGUGAACUAAAAUAUAAA [hsa-mir-513c]"
tgt = "TO-3-N3 (biotin conjugate)"
observation_type = "pull-down binding Z-score"
data_value = -0.547

[[record]]
chain = "CAUUACUUUAUGAUG [SHAPE_invitro_SARS-CoV-2_Motif_468]"
tgt = "TO-3-N3 (biotin conjugate)"
observation_type = "pull-down binding Z-score"
data_value = 0.168

[[record]]
chain = "UGACAUGACUCUUGAGGAAAUGUCA [IAV_invivo_NS1_NEP_8_Motif_7+IAV_invivo_NS1_NEP_8_Motif_7]"
tgt = "TO-3-N3 (biotin conjugate)"
observation_type = "pull-down binding Z-score"
data_value = -0.475

[[record]]
chain = "GGGGCCGGGGCCGGGGCCGGGGCCGGGGCCGGGGCC [G4_r(GGGGCC)8]"
tgt = "TO-3-N3 (biotin conjugate)"
observation_type = "pull-down binding Z-score"
data_value = 4.47

[[record]]
chain = "AGCCUCCAAACCUGUAGACAGGGUCAUGCAGUACUAGGGGCGAG [hsa-mir-4478]"
tgt = "TO-3-N3 (biotin conjugate)"
observation_type = "pull-down binding Z-score"
data_value = -0.0187

[[record]]
chain = "GAAGCCGCUCCCACCUGACCCUCACGGCCUC [hsa-mir-3605]"
tgt = "TO-3-N3 (biotin conjugate)"
observation_type = "pull-down binding Z-score"
data_value = 1.3

[[record]]
chain = "UUAACAUGUUGAGCAUUACUCAUGUUAG [hsa-mir-3684]"
tgt = "TO-3-N3 (biotin conjugate)"
observation_type = "pull-down binding Z-score"
data_value = -0.527

[[record]]
chain = "UUGUUACAUUUUAGGAUUGCUUGCCCCUUGCUCCAAUGGUGCAGGCAGAAGAAAUGCAAACAA [hsa-mir-3973]"
tgt = "TO-3-N3 (biotin conjugate)"
observation_type = "pull-down binding Z-score"
data_value = -0.0993

